# tgt: Cysteinyl leukotriene receptor 1 (Cavia porcellus, UniProt Q2NNR5)
# Sequence (Q2NNR5 whole entry): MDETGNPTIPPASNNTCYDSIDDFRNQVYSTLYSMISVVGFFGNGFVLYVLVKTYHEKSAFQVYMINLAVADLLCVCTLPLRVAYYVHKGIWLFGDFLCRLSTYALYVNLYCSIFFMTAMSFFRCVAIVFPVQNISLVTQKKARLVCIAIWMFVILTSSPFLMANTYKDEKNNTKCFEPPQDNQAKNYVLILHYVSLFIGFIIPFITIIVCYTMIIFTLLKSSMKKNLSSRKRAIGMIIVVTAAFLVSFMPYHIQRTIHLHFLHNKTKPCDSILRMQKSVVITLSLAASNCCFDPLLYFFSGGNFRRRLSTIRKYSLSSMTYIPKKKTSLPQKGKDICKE
# test.summary: Binding affinity against Cysteinyl leukotriene D4 receptor from guinea pig lung was determined using [3H]LTD4 (0.2 nM)
pKi: −log10 of the molar value.
readout.label: pKi

The examples below pair each entry with its known result.
Form field: reported pKi of `c1ccc2nc(COc3ccc(SCCCc4nnn[nH]4)cc3)ccc2c1`
7.51

Form field: reported pKi of `c1cc(OCc2ccc3ccccc3n2)cc(OCc2nn[nH]n2)c1`
7.07

Form field: reported pKi of `CCc1ccc(OCc2ccc3ccccc3n2)cc1OCCCc1nnn[nH]1`
6.62

Form field: reported pKi of `Cc1cc(OCCCc2nnn[nH]2)cc(OCc2ccc3ccccc3n2)c1`
6.19

Form field: reported pKi of `c1cc(OCCCCc2nnn[nH]2)cc(OCc2ccc3ccccc3n2)c1`
7.12

a. c1ccc2nc(COc3ccc(OCCCc4nnn[nH]4)cc3)ncc2c1
b. Cc1cc(OCc2ccc3ccccc3n2)ccc1OCCCc1nnn[nH]1
From the recorded data, which exceeds the other in pKi: a or b ? Answer by stating the label of the chosen item.
b
(b: 6.77, a: 6.30)

a. c1ccc2nc(CSc3ccc(OCCCc4nnn[nH]4)cc3)ccc2c1
b. CCOC(=O)CCCOc1cccc(OCc2ccc3ccccc3n2)c1
From the recorded data, which exceeds the other in pKi: a or b ? Answer by stating the label of the chosen item.
b
(b: 6.80, a: 6.27)

I. CCOC(=O)CCCOc1ccc(OCc2ccc3ccccc3n2)cc1
II. c1ccc2nc(COc3ccc(CCc4nnn[nH]4)cc3)ccc2c1
From the recorded data, which exceeds the other in pKi: I or II ? Answer by stating the label of the chosen item.
II

---

# tgt: Cysteinyl leukotriene receptor 1 (Cavia porcellus, UniProt Q2NNR5)
# test.summary: Compound was evaluated for inhibition against binding of [3H]LTD4 to Cysteinyl leukotriene D4 receptor
readout.label: pKi
The value called pKi is obtained by taking minus log10 of the concentration in mol/L.

Give Cysteinyl leukotriene receptor 1 (Cavia porcellus, UniProt Q2NNR5) pKi for `c1cc(OCCCc2nnn[nH]2)cc(OCc2ccc3ccccc3n2)c1`
7.38

---

# Species: Cavia porcellus
# test.summary: Half life was determined
# study.conditions: guinea pig
Item-by-item account of half-life

Form field: reported half-life of `c1ccc2nc(COc3ccc(OCCCc4nnn[nH]4)cc3)ccc2c1`
~4 h

Now look at this entry.
Form field: reported half-life of `c1cc(OCCCc2nnn[nH]2)cc(OCc2ccc3ccccc3n2)c1`
~4 h

---

# tgt: Cysteinyl leukotriene receptor (Cavia porcellus)
# test.summary: Inhibition of the spasmogenic activity of LTD4 in guinea pig parenchymal strips.
readout.label: IC50 (nM)

The examples below pair each entry with its known result.
Form field: reported IC50 of `c1ccc2nc(COc3ccc(OCCCc4nnn[nH]4)cc3)ccc2c1`
250

Form field: reported IC50 of `O=C(O)CCCOc1ccc(OCc2ccc3ccccc3n2)cc1`
800

Form field: reported IC50 of `c1cc(OCc2ccc3ccccc3n2)cc(-c2nn[nH]n2)c1`
200

Form field: reported IC50 of `c1ccc2nc(COc3ccc(SCCCc4nnn[nH]4)cc3)ccc2c1`
25

Form field: reported IC50 of `O=C(CCCOc1ccc(OCc2ccc3ccccc3n2)cc1)NS(=O)(=O)c1ccccc1`
19

1. c1cc(OCc2ccc3ccccc3n2)cc(OCc2nn[nH]n2)c1
2. c1ccc2nc(COc3ccc(Cc4nnn[nH]4)cc3)ccc2c1
From the recorded data, which exceeds the other in IC50: 1 or 2 ? Answer by stating the label of the chosen item.
2

// data source = ChEMBL document CHEMBL1124743
